Consider the following variants and their measured self-cleavage readings.
B1: HDV Ribozyme (parent)
chain: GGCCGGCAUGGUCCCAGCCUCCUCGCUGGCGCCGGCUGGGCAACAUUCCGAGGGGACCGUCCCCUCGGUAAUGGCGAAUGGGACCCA

- Variants of: B1
- protocolDetails: self-cleavage, relative activity (ratio to wild type); higher = more cleavage; co-transcriptional
metricName: self-cleavage

> print(dat)
                          biopolymersequence     metricname  obsvalue
 1  GGCCGGCAUGGUCCCAGCCUCCUCGCUGGCGCCGGCUGGGCAAGAUUCCGAGGGGACCGUCCCCUCGGUAAUGGUGAAUGGGACCCA [C44G C75U]  self-cleavage    0.0627
 2  GGCCGGCAUGGUCCCAGCCUCCUCACUGGCGCCGGCUGGGCAACAUUCCGAGGGGACCCUCCCCUCGGUAAUGGCGAAUGGGACCCA [G25A G59C]  self-cleavage     0.332
 3  GGCCGGCAUGGUCCCAGCCUCCUCGCAGGCACCGGCUGGGCAACAUUCCGAGGGGACCGUCCCCUCGGUAAUGGCGAAUGGGACCCA [U27A G31A]  self-cleavage     0.743
 4  UGCCGGCAUAGUCCCAGCCUCCUCGCUGGCGCCGGCUGGGCAACAUUCCGAGGGGACCGUCCCCUCGGUAAUGGCGAAUGGGACCCA [G1U G10A]  self-cleavage     0.387
 5  GUCCGGCAUGGUACCAGCCUCCUCGCUGGCGCCGGCUGGGCAACAUUCCGAGGGGACCGUCCCCUCGGUAAUGGCGAAUGGGACCCA [G2U C13A]  self-cleavage         0
 6  GGCCGGCACGGUCCCAGCCUCCUCGCAGGCGCCGGCUGGGCAACAUUCCGAGGGGACCGUCCCCUCGGUAAUGGCGAAUGGGACCCA [U9C U27A]  self-cleavage     0.935
 7  GGCGGGCAUGGUCCCAGCCUCCUCGCUGGCGCCGGCUGGGCAACAUUCCGAGGGGAGCGUCCCCUCGGUAAUGGCGAAUGGGACCCA [C4G C57G]  self-cleavage     0.489
 8  GGCCGGCAUGGUGCCAGCCUCCUCGCUGGCGCCGGCUGGGCAACAUUCCGAGGUGACCGUCCCCUCGGUAAUGGCGAAUGGGACCCA [C13G G54U]  self-cleavage    0.0282
 9  GGCCGGCAUGGUCCCAGCUUCCUCGCUGGCGCCGGCUGGGCAACAUUCCGAGGGGACCGUCCCCUCGGGAAUGGCGAAUGGGACCCA [C19U U69G]  self-cleavage    0.0692
10  GGCCGGCAUGGUCCCAUCCUCCUCGCUGGCGCCGGCUGGGCAACAUUCCGAGGGGACCGUCCCCUCGGUAAUGGCGAUUGGGACCCA [G17U A78U]  self-cleavage    0.0739
11  GGCCGGCAUGGUCCCAGCCUCCUCGCUGGCGCCGGCUGGGCAACAUUCCGAGGGGACCGUCCCCUCGGUAAUGGGGAGUGGGACCCA [C75G A78G]  self-cleavage     0.222
12  GGCCGGCAUGGUCCCAGCCUCCUCGCUGGCGCCGACUGGGCAACAUUCCGAGGGGACCGCCCCCUCGGUAAUGGCGAAUGGGACCCA [G35A U60C]  self-cleavage     0.554
13  GGCCGGCAUGGUCCCAUCCUCCUCGCUGGCGCCGGCUGGGCAACAUUCUGAGGGGACCGUCCCCUCGGUAAUGGCGAAUGGGACCCA [G17U C49U]  self-cleavage     0.356
14  GGCCGGCAUGGUCCCAGCAUCCUCGCUGGCGCCGGCUGGGCAACAUUCCGAGGGGACCGUCCCCUCGGUAAGGGCGAAUGGGACCCA [C19A U72G]  self-cleavage     0.095
15  GGCCGGCAUGGUCCCAGCCUCCUCGCUGGCCCCGGCUGGGCAACAUUUCGAGGGGACCGUCCCCUCGGUAAUGGCGAAUGGGACCCA [G31C C48U]  self-cleavage     0.475
16  GGCCGGCAUGGUCCCAGCCUCCUCGCUGGCGCCGGCUGGGAAACAUUCCGAGGGUACCGUCCCCUCGGUAAUGGCGAAUGGGACCCA [C41A G55U]  self-cleavage     0.968
17  GGCCGGCAUGGUCCCAGCCUCCUCGCUGGCGCGGGCUGGGCAACAUUCCGAGGGGACCGUCCACUCGGUAAUGGCGAAUGGGACCCA [C33G C63A]  self-cleavage    0.0475
18  GGCUGGCAUGGUCCCAGCCUCCUCGCUGGCGCCGGCUGGGCAACAUUCCGAGGGGACCGUCCCCUCGGUAAUGGCGAAUGGGGCCCA [C4U A83G]  self-cleavage     0.464
19  GGCCGGCAUGGUCCCAGCCUCCUCGCUGGCGCCGGCUGGGCAAUAUUCCGAGGGGACCGUCCCCUCGGUAAUGGCGAAUGUGACCCA [C44U G81U]  self-cleavage     0.212
20  GGCCGGCAUGGUCCCAGCCUCCUCGCUGGCGCCGGGUGGGCAACAUUCCGAGGGGACCGUCCCCUCGGUAAUGGCGAAUGGGACCCA [C36G]  self-cleavage      0.13
21  GGCCGGCAUGGUCCCAGCCUCCUCGCUGGCGCCGGCUGGGCAACAUUCCGAGGGGACCGUCCCCACGGUAAUGGCGAAUGGGACGCA [U65A C85G]  self-cleavage     0.604
22  GGCCGGCGUGGUCCCAGCCUCCUCGCUGGCGCCGGCUGGGCAACAUUCCGAGGGGACGGUCCCCUCGGUAAUGGCGAAUGGGACCCA [A8G C58G]  self-cleavage     0.895
